Molecular target: T1, P9-CCR7 (human, UniProt P32248 25-378)
T1 sequence: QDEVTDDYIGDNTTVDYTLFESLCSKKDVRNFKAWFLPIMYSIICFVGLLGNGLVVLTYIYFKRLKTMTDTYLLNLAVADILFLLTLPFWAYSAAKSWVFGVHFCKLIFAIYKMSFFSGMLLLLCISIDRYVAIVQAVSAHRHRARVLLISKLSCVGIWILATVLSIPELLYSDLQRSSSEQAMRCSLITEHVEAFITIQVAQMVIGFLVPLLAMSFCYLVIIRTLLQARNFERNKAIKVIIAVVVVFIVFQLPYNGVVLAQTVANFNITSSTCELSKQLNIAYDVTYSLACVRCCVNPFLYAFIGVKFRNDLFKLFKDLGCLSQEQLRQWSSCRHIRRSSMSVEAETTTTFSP
Test: ELISA
experimental readout: Kd (nM)

a. CCL19-H6-Flag (ligand) GTNDAEDCCLSVTQKPIPGYIVRNFHYLLIKDGCRVPAVVFTTLRGRQLCAPPDQPWVERIIQRLQRTSAKMKRRSS
b. CCL21-H6-Flag (ligand) SDGGAQDCCLKYSQRKIPAKVVRSYRKQEPSLGCSIPAILFLPRKRSQAELCADPKELWVQQLMQHLDKTPSPQKPAQGCRKDRGASKTGKKGKGSKGCKRTERSQTPKGP
// query # compare Kd for a vs b ; return the one with the smaller value Identify your pick by its label.
// result b
(b: 11 nM, a: 19 nM)
